Give measured Ki for each item. Keep answers brief.
- experimentalSystem: human 5-HT5A receptor (Homo sapiens (Human), UniProt P47898)
- Sequence (P47898 whole entry): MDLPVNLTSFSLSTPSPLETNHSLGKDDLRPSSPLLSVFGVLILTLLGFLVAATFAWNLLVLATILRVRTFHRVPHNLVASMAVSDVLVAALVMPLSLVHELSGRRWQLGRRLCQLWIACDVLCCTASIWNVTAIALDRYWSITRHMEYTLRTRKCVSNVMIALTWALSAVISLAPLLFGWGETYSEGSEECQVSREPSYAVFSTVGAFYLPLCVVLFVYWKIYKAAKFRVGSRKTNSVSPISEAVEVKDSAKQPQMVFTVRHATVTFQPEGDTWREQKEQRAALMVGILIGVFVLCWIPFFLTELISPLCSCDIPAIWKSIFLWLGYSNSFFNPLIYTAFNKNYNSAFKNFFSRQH
- method: Test on a human 5-HT5A receptor binding inhibition ([3H]5-CT)
- particulars: [3H]5-CT binding, membrane from HEK293 cells expressing human 5-HT5A receptor; Ki calculated from IC50

# annotated cases, reported Ki shown
{"entrySmiles": "Cc1nc2ccc(C(=O)N=C(N)N)cc2c(-c2ccccc2F)c1C", "recordedEndpoint": "Ki", "recordedValue": "10 to 100 nM"}
{"entrySmiles": "NC(N)=NC(=O)c1ccc2nccc(-c3c(F)cccc3Cl)c2c1", "recordedEndpoint": "Ki", "recordedValue": "1 to 10 nM"}
{"entrySmiles": "Cc1cnc2ccc(C(=O)N=C(N)N)cc2c1-c1cccc(F)c1Cl", "recordedEndpoint": "Ki", "recordedValue": "1 to 10 nM"}
{"entrySmiles": "CCc1cnc(-c2c(F)cccc2F)c2cc(C(=O)N=C(N)N)ccc12", "recordedEndpoint": "Ki", "recordedValue": "1 to 10 nM"}
{"entrySmiles": "Cc1cc(C(=O)N=C(N)N)cc2c(-c3c(F)cccc3F)ccnc12", "recordedEndpoint": "Ki", "recordedValue": "1 to 10 nM"}
{"entrySmiles": "Cc1cc(C(=O)N=C(N)N)cc2c(-c3ccc(Cl)cc3Cl)ccnc12", "recordedEndpoint": "Ki", "recordedValue": "10 to 100 nM"}

// input: 5 molecules below; output: Ki for each
1. Cc1cc(-c2c(F)cccc2Cl)c2cc(C(=O)N=C(N)N)ccc2n1
2. Cc1cc(C(=O)N=C(N)N)cc2c(-c3ccc(Cl)cc3F)ccnc12
3. Cc1cnc(-c2ccccc2F)c2cc(C(=O)N=C(N)N)ccc12
4. NC(N)=NC(=O)c1ccc2nccc(-c3cccc(C(F)(F)F)c3F)c2c1
5. NC(N)=NC(=O)c1ccc2ccnc(-c3c(F)cccc3Cl)c2c1

Marked response:
1. 10 to 100 nM
2. 1 to 10 nM
3. 1 to 10 nM
4. 10 to 100 nM
5. 1 to 10 nM

// input: 2 molecules below; output: Ki for each
1. NC(N)=NC(=O)c1ccc2c(Cl)cnc(-c3cc(F)ccc3F)c2c1
2. COc1cnc(-c2c(F)cccc2F)c2cc(C(=O)N=C(N)N)ccc12

Marked response:
1: 1 to 10 nM; 2: 1 to 10 nM

// input: 3 molecules below; output: Ki for each
1. COc1cc(F)ccc1-c1ncc(Cl)c2ccc(C(=O)N=C(N)N)cc12
2. Cc1cccc(C)c1-c1ncc(Cl)c2ccc(C(=O)N=C(N)N)cc12
3. NC(N)=NC(=O)c1cnc2cccc(-c3c(F)cc(F)cc3F)c2c1

Marked response:
10 to 100 nM
1 to 10 nM
10 to 100 nM

// input: 3 molecules below; output: Ki for each
1. Cc1nc2ccc(C(=O)N=C(N)N)cc2c(-c2c(F)cncc2F)c1C
2. COc1ccc(-c2ccnc3c(C)cc(C(=O)N=C(N)N)cc23)c(Cl)c1
3. COc1ccc(F)c(-c2ccnc3c(C)cc(C(=O)N=C(N)N)cc23)c1F

Marked response:
10 to 100 nM
1 to 10 nM
10 to 100 nM

* * *

- experimentalSystem: human 5-HT5A receptor (Homo sapiens (Human), UniProt P47898)
- method: Test on a human 5-HT5A receptor binding inhibition ([3H]5-CT)
- particulars: [3H]5-CT binding, membrane from HEK293 cells expressing human 5-HT5A receptor; Ki calculated from IC50
pKi: −log10 of the molar value. Where a name gives a salt, the structure may show the parent alone.
Give measured pKi for each item. Keep answers brief.

{"compound": "Cc1cc(C(=O)N=C(N)N)cc2c(-c3cccc(Cl)c3Cl)ccnc12 [Example 46]", "recordedValue": "8.00 to 9.00"}
{"compound": "NC(N)=NC(=O)c1ccc2c(Cl)cnc(C3CC3)c2c1 [Example 198]", "recordedValue": "8.00 to 9.00"}
{"compound": "COc1cc(Cl)ccc1-c1ccnc2c(C)cc(C(=O)N=C(N)N)cc12 [Example 77]", "recordedValue": "8.00 to 9.00"}

// input: 7 compounds below; output: pKi for each
1. Cc1nc2ccc(C(=O)N=C(N)N)cc2c(-c2ccc(F)cc2Cl)c1Cl [Example 132]
2. NC(N)=NC(=O)c1ccc2ccnc(-c3c(F)cc(F)cc3F)c2c1 [Example 1, dihydrochloride]
3. COc1cc(F)c(-c2ccnc3ccc(C(=O)N=C(N)N)cc23)c(F)c1 [Example 59]
4. NC(N)=NC(=O)c1ccc2c(C3CC3)cnc(-c3c(F)cccc3F)c2c1 [Example 156]
5. NC(N)=NC(=O)c1ccc2c(C(F)F)cnc(-c3ccccc3F)c2c1 [Example 215]
6. NC(N)=NC(=O)c1ccc2c(Cl)cnc(-c3ccc(Cl)cc3F)c2c1 [Example 195]
7. Cc1nc2ccc(C(=O)N=C(N)N)cc2c(-c2c(F)cccc2F)c1F [Example 123]

Marked response:
8.00 to 9.00
8.00 to 9.00
7.00 to 8.00
7.00 to 8.00
7.00 to 8.00
8.00 to 9.00
8.00 to 9.00

// input: 8 compounds below; output: pKi for each
1. NC(N)=NC(=O)c1ccc2c(F)cnc(-c3cccc(F)c3F)c2c1 [Example 205]
2. COc1ncccc1-c1c(Cl)cnc2ccc(C(=O)N=C(N)N)cc12 [Example 106]
3. NC(N)=NC(=O)c1ccc2ncc(Cl)c(-c3ccccc3F)c2c1 [Example 69]
4. N#Cc1ccccc1-c1nccc2ccc(C(=O)N=C(N)N)cc12 [Example 139]
5. NC(N)=NC(=O)c1ccc2c(Cl)cnc(-c3ccncc3F)c2c1 [Example 173]
6. Cc1nc2ccc(C(=O)N=C(N)N)cc2c(-c2ccncc2Cl)c1C [Example 127]
7. NC(N)=NC(=O)c1ccc2c(F)cnc(-c3ccncc3F)c2c1 [Example 165]
8. Cc1nc2ccc(C(=O)N=C(N)N)cc2c(-c2ccccc2F)c1F [Example 125]

Marked response:
7.00 to 8.00
7.00 to 8.00
8.00 to 9.00
6.52 to 7.00
7.00 to 8.00
7.00 to 8.00
7.00 to 8.00
7.00 to 8.00

Exam item: GET /values?readout=pKi&item= NC(N)=NC(=O)c1ccc2nccc(-c3cc(Cl)ccc3F)c2c1 [Example 22]
Marked response: 7.00 to 8.00

* * *

- experimentalSystem: human 5-HT5A receptor (Homo sapiens (Human), UniProt P47898)
- method: Test on a human 5-HT5A receptor binding inhibition ([3H]5-CT)
- particulars: [3H]5-CT binding inhibition, membrane from HEK293 cells expressing human 5-HT5A receptor; Ki calculated from IC50
recordedEndpoint: Ki (nM)
Give bare numbers, in nM.

# annotated cases, reported Ki shown
{"compound": "NC(N)=NC(=O)c1ccc2c(F)cnc(-c3c(F)cncc3F)c2c1 [Example 157]", "Ki (nM)": 5.3}
{"compound": "NC(N)=NC(=O)c1ccc2c(F)cnc(-c3ccc(F)cc3Cl)c2c1 [Example 151]", "Ki (nM)": 4.1}
{"compound": "NC(N)=NC(=O)c1ccc2c(F)cnc(-c3ccccc3F)c2c1 [Example 160]", "Ki (nM)": 3.3}

// input: 7 compounds below; output: Ki for each
1. Cc1cnc(-c2ccccc2F)c2cc(C(=O)N=C(N)N)ccc12 [Example 192]
2. Cc1nc2ccc(C(=O)N=C(N)N)cc2c(-c2c(F)cc(F)cc2F)c1C [Example 114]
3. COc1cccc(F)c1-c1ncc(F)c2ccc(C(=O)N=C(N)N)cc12 [Example 159]
4. NC(N)=NC(=O)c1ccc2c(Cl)cnc(-c3ccc(F)cc3F)c2c1 [Example 211]
5. NC(N)=NC(=O)c1ccc2c(F)cnc(-c3c(F)cccc3Cl)c2c1 [Example 147]
6. Cc1cnc(-c2c(F)cc(F)cc2F)c2cc(C(=O)N=C(N)N)ccc12 [Example 152]
7. Cc1cnc(-c2c(F)cccc2F)c2cc(C(=O)N=C(N)N)ccc12 [Example 170]

Marked response:
1: 1.8; 2: 3.7; 3: 7.1; 4: 2.3; 5: 1.6; 6: 1.3; 7: 1.9

* * *

- experimentalSystem: human 5-HT5A receptor (Homo sapiens (Human), UniProt P47898)
- method: Test on a human 5-HT5A receptor binding inhibition ([3H]5-CT)
- particulars: [3H]5-CT binding, membrane from HEK293 cells expressing human 5-HT5A receptor; Ki calculated from IC50
Give measured Ki for each item. Keep answers brief.

{"entrySmiles": "NC(N)=NC(=O)c1ccc2c(F)cnc(-c3cccc(Cl)c3O)c2c1", "Ki": "10 to 100 nM"}
{"entrySmiles": "NC(N)=NC(=O)c1ccc2c(C(F)(F)F)cnc(-c3c(F)cccc3F)c2c1", "Ki": "10 to 100 nM"}
{"entrySmiles": "NC(N)=NC(=O)c1ccc2nccc(-c3c(Cl)cccc3Cl)c2c1", "Ki": "1 to 10 nM"}
{"entrySmiles": "COc1ccc(-c2c(Cl)cnc3ccc(C(=O)N=C(N)N)cc23)cc1", "Ki": "1 to 10 nM"}
{"entrySmiles": "Cc1cc(C(=O)N=C(N)N)cc2c(-c3ccc(F)cc3F)c(Cl)cnc12", "Ki": "1 to 10 nM"}
{"entrySmiles": "NC(N)=NC(=O)c1ccc2nccc(-c3c(F)cc(Cl)cc3F)c2c1", "Ki": "1 to 10 nM"}
{"entrySmiles": "Cc1cnc2ccc(C(=O)N=C(N)N)cc2c1-c1ccc(F)cc1F", "Ki": "1 to 10 nM"}
{"entrySmiles": "NC(N)=NC(=O)c1ccc2c(F)cnc(-c3ccc(F)cc3)c2c1", "Ki": "1 to 10 nM"}

// input: 2 molecules below; output: Ki for each
1. NC(N)=NC(=O)c1ccc2c(F)cnc(-c3c(F)cncc3F)c2c1
2. Cc1nc2ccc(C(=O)N=C(N)N)cc2c(-c2ccc(F)cc2)c1C

Marked response:
1. 1 to 10 nM
2. 10 to 100 nM

// input: 2 molecules below; output: Ki for each
1. NC(N)=NC(=O)c1ccc2ccnc(-c3ccc(Cl)cc3Cl)c2c1
2. Cc1cnc2ccc(C(=O)N=C(N)N)cc2c1-c1c(F)cc(F)cc1Cl

Marked response:
["1 to 10 nM", "1 to 10 nM"]

Ref: patent US8853242B2
